B1: TRIM9 (parent)
chain: CVQCKMPVCYQCLEEGKHSSHEVK

variants of: B1; test: protein stability index of a GFP-peptide fusion (GPS, HEK-293T) (PSI 1-6); higher = more stable; settings: c terminus: a fixed tail appended;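 also: lentivirally expressed fusions sorted by FACS into six bins by GFP to DsRed ratio, PSI derived from sequencing read proportions per bin multiplied by bin number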
assay_readout: protein stability index
# answer = number (no unit)

[ask] Report protein stability index for CVQCKMGVCYQCLEEGKHSSHEVK [P7G] please.
[reply] 4.59

[ask] Request: CVQCKMPVCYQCLEEGRHSSHEVK [K17R]
[reply] 2.96

[ask] Request: CVQCKMPVCYQCLEEGQHSSHEVK [K17Q]
[reply] 4.5

[ask] Request: CVQCKMPVWYQCLEEGKHSSHEVK [C9W]
[reply] 2.96

[ask] Request: CVQCKMPVCYQCWEEGKHSSHEVK [L13W]
[reply] 4.7

[ask] Request: CVQCKMPVCYQCLEEGKHSSHFVK [E22F]
[reply] 3.56

[ask] Request: CVQCKMPVCYQCLEEGKHSSGEVK [H21G]
[reply] 4.16

[ask] Request: CVQCKMPVCYPCLEEGKHSSHEVK [Q11P]
[reply] 3.76

[ask] Request: CVPCKMPVCYQCLEEGKHSSHEVK [Q3P]
[reply] 2.94

[ask] Request: CVQCKMPVCYQCLEEGKHCSHEVK [S19C]
[reply] 3.85

[ask] Request: CVQCKMPVCYQCLDEGKHSSHEVK [E14D]
[reply] 2.99

[ask] Request: CVQCKMPVCYQCLLEGKHSSHEVK [E14L]
[reply] 2.93

[ask] Request: CVQCKMPVCYQCLESGKHSSHEVK [E15S]
[reply] 3.81

[ask] Request: CVQCKMPVCYQCHEEGKHSSHEVK [L13H]
[reply] 4.55

[ask] Request: CVQCKYPVCYQCLEEGKHSSHEVK [M6Y]
[reply] 3.79

[ask] Request: CVQCKMPVCYDCLEEGKHSSHEVK [Q11D]
[reply] 4.05

[ask] Request: CVQCKMPVCYQCLEEYKHSSHEVK [G16Y]
[reply] 3.41

[ask] Request: CVQCKMPVCYQCLEEHKHSSHEVK [G16H]
[reply] 3.36
